Where these numbers come from: paper PMC6922598

target: ABP (amantadine-binding protein); construct: de novo designed homo-trimer; GSHMG//[…]; experiment: X-ray crystal structure ([…] Å) and neutron structure ([…] Å) of the complex; NMR titration with TITAN line shape fitting (Kd)
parameter measured: Kd (µM)
Numbers only, in µM.

[Q] Item NC12CC3CC(CC(C3)C1)C2 [amantadine] with ABP (amantadine-binding protein) - Kd?
[A] 24.1
